Where these numbers come from: PubChem BioAssay AID179

# System: CEM cells HIV-1 protection, formazan growth assay
# assay.method.text: NCI AIDS Antiviral Assay
# measurement.context: measured here: growth of uninfected CEM cells
observable: log10 IC50 (log10 of the value in µM)
Please be aware that the numbers have been log10-transformed from IC50 in µM.

Observe how each entry below is paired with its result.
CSC1=N/C(=C\c2ccc(C)cc2)C(=O)N1: 2.25
O=NNc1ccc(SSc2ccc(NN=O)cc2)cc1: 1.90
C[N+]12C=CC=C1C(N1CCCC1)c1scc(-c3ccc(Br)cc3)c12 (stereo not drawn): 1.03

Tell me reported log10 IC50 for O=C(Nc1nc(=S)[nH][nH]1)C(=O)C(c1cnc2ccc([N+](=O)[O-])cc2n1)[N+](=O)[O-] (stereo not drawn) , tested with CEM cells HIV-1 protection, formazan growth assay.
1.90

What do we get for CC(=O)C(=Cc1ccc(C=C(C(C)=O)C(C)=O)cc1)C(C)=O ?
-0.03

What do we get for CN(Cc1c(S)ccc2ccccc12)Cc1c(S)ccc2ccccc12 ?
1.23

What do we get for Oc1cccc2cc(Cl)cnc12 ?
0.92

What do we get for C1CCN(CCCSSCCCN2CCCCC2)CC1 ?
1.96

What do we get for CCc1c2c(cc3c1CC1(C3)Cc3cc4c(c(C(=O)OC)c3C1)CCCC4)CCCC2 (stereo not drawn) ?
2.22

What do we get for Cn1c(O)c(N=NC(N)=S)c2ccccc21 ?
2.27

What do we get for CC1C[N+]2(CNC(=O)C3=C(O)C4(O)C(=O)C5=C(O)c6c(O)cccc6C(C)(O)C5CC4C(N(C)C)C3=O)CC(C)O[B-]2(c2ccccc2)O1 (stereo not drawn) ?
2.02

What do we get for COc1cc2c(cc1OC)C1Cc3cc(OC)c(OC)cc3N1CC2 (stereo not drawn) ?
0.96
